- System: NCI/ADR-RES ovarian
- Protocol Notes: NCI-60 one-dose screen, 48 h (100 = growth as untreated, 0 = no growth, -100 = all killed)
- Assay Conditions: 10 µM unless noted
This is part of a sample that, as a whole, favours compounds with a hit. Of some 83,000 tested, about 20% had one in any assay.
For each of the molecules below, state its growth.
Answer in %, number only, no unit symbol.

Value (growth, NCI/ADR-RES ovarian) for record COc1ccc2c(c1)c(-c1noc(-c3cn(C)c4ncc(F)cc34)n1)cn2C = 68.3

Value (growth, NCI/ADR-RES ovarian) for record CC(=O)CC(=O)SC1=NCCS1 = 113

Value (growth, NCI/ADR-RES ovarian) for record CCN=Cc1c(O)c(O)c(C(C)C)c2cc(C)c(-c3c(C)cc4c(C(C)C)c(O)c(O)c(C=NCC)c4c3O)c(O)c12 = 47.9

Value (growth, NCI/ADR-RES ovarian) for record COc1cc(C(=O)/C=C/c2c(-c3ccc(F)cc3)nc3sccn23)cc(OC)c1OC = 10.4

Value (growth, NCI/ADR-RES ovarian) for record Cn1cc(-c2nnc(-c3cn(C)c4ncc(Br)cc34)s2)c2cc(Br)ccc21 = 102

Value (growth, NCI/ADR-RES ovarian) for record O=C(Nc1cccc2ccccc12)c1cc2ccccc2cc1O = 4.52

Value (growth, NCI/ADR-RES ovarian) for record Cc1c(Cn2cc(COc3ccc(Br)cc3)nn2)c(C)c(Cn2cc(COc3ccc(Br)cc3)nn2)c(C)c1Cn1cc(COc2ccc(Br)cc2)nn1 = 101

Value (growth, NCI/ADR-RES ovarian) for record CS(=O)(=O)c1cccnn1 = 96

Value (growth, NCI/ADR-RES ovarian) for record C#CCC(C(=O)OCC)C(=O)OCC = 105

Value (growth, NCI/ADR-RES ovarian) for record COc1ccc2c(c1)C(C)Cc1c(Cl)ncnc1N2C (stereo not given) = 2.03

###

- Tested on: HOP-92 NSCLC
- Protocol Notes: NCI-60 one-dose screen, 48 h
- Assay Conditions: 10 µM unless noted
The panel holds about 83,000 compounds, 20% with a hit somewhere; the sample as a whole holds those more often. Active and inactive are the calls of the source. The calls were made as follows: active = growth percent below 10; inactive = the rest.
Respond using exactly one of the listed classes: active, inactive

stdin: Tell me the recorded outcome of this test for CC(C)CCSC1=CC(=O)c2ccccc2C1=O .
stdout: active

stdin: Tell me the recorded outcome of this test for CCOc1ccc(/C=C(\C#N)c2cc3ccccc3[nH]2)cc1 .
stdout: inactive

stdin: Tell me the recorded outcome of this test for CC(=O)CC(=O)SC1=NCCS1 .
stdout: inactive

stdin: Tell me the recorded outcome of this test for CCCSc1nc(N)nc2nc[nH]c12 .
stdout: inactive

stdin: Tell me the recorded outcome of this test for CCOC(=O)C(=Cc1ccccc1[N+](=O)[O-])C(=O)OCC .
stdout: active

stdin: Tell me the recorded outcome of this test for N=C(N)c1ccc(-c2ccc(-c3ccc(-c4cccs4)s3)s2)cc1F .
stdout: inactive

stdin: Tell me the recorded outcome of this test for C[C@H]1[C@H](C)CC[C@]2(C(=O)O)CC[C@]3(C)C(=CC[C@@H]4[C@@]5(C)C/C(=C/c6cccnc6)[C@H](O)C(C)(C)[C@@H]5CC[C@]43C)[C@H]12 .
stdout: active

stdin: Tell me the recorded outcome of this test for O=C(NCc1ccc(Cn2c(=O)sn(-c3ccccc3)c2=O)cc1)OCc1ccc2c(Br)cc(Br)c(O)c2n1 .
stdout: active

stdin: Tell me the recorded outcome of this test for CCCCN(CCCC)CC(O)c1ccc(OCc2ccccc2)c2ccccc12 (stereo not given) .
stdout: inactive

stdin: Tell me the recorded outcome of this test for C[n+]1c2ccccc2nc2c(N)cc(N)cc21 .
stdout: inactive

###

- Test system: HOP-62 NSCLC
- Protocol Notes: NCI-60 one-dose screen, 48 h (100 = growth as untreated, 0 = no growth, -100 = all killed)
- Assay Conditions: 10 µM unless noted
About 83,000 compounds went through this panel and 20% of them were active in at least one assay; those are over-represented in the sample as a whole. The source made the active and inactive calls. Rule for the calls: active = growth percent below 10; inactive = the rest.
Readout Type: growth

Noted for O=[N+]([O-])c1cc([N+](=O)[O-])c(NN=C(c2ccc(O)cc2)c2ccc(O)cc2)cc1Cl : its growth reads -91.2% (active)

Noted for CCCCCN(CCCCC)CCCCCCCCN1CCCc2ccccc21 : its growth reads 109% (inactive)

Noted for COc1cc(-c2cc(-c3ccc(Nc4ncnc5cc(Cl)ccc45)cc3)nc(N3CCCCC3)n2)cc(OC)c1OC : its growth reads 84.7% (inactive)

Noted for CCOC(=O)c1nn(C2CCCCO2)c2ccc(NC(=O)Cn3nnc4ccccc43)cc12 (centres undefined) : its growth reads 98.8% (inactive)

Noted for COc1cc(Cl)cc(-c2nn(C(=O)NS(=O)(=O)c3ccccc3)cc2-c2ccncc2)c1 : its growth reads 68.6% (inactive)

Noted for CC1=C/C(=C(\c2cc(C)c(O)c(C(=O)O)c2)c2c(Cl)cccc2Cl)C=C(C(=O)O)C1=O : its growth reads 97% (inactive)

Noted for O=C1COCCN1c1ccc(NCc2cn(Cc3cccc4ccccc34)c3ccccc23)cc1 : its growth reads 84.3% (inactive)

Noted for C=C(C)[C@@H]1CC[C@]2(C(N)=O)CC[C@]3(C)[C@H](CC[C@@H]4[C@@]5(C)C/C(=C/c6cccnc6)[C@H](O)C(C)(C)[C@@H]5CC[C@]43C)[C@@H]12 : its growth reads 27.5% [100 µM] (inactive)

Noted for O=C(NCc1ccc(Cn2c(=O)sn(-c3ccccc3)c2=O)cc1)OCc1ccc2c(Br)cc(Br)c(O)c2n1 : its growth reads -48.4% (active)

Noted for CN(C)c1ccc(N=Nc2ccc3ccccc3c2)cc1 : its growth reads 110% (inactive)

Noted for CCOc1cccc2c(NC(C)CCCN(CC)CC)c(C)cnc12 (centres undefined) : its growth reads 98.9% (inactive)

Noted for O=C1COCCN1c1ccc(Nc2nc(Cl)nc(N3CCOCC3)n2)cc1 : its growth reads 97.9% (inactive)

Noted for Oc1cc(Nc2ccnc3cc(Cl)ccc23)c2ncccc2c1 : its growth reads 74.4% (inactive)

Noted for CC1Cc2c(Cl)ncnc2N(C)c2ccc(O)cc21 (centres undefined) : its growth reads 53.8% (inactive)

Noted for N#Cc1c(N2CCOCC2)nc(=S)[nH]c1-c1ccco1 : its growth reads 35.7% (inactive)

Noted for Cc1nc(Cl)cc(N(c2cc(Cl)nc(C)n2)c2ncc(C(=O)Nc3c(C)cccc3Cl)s2)n1 : its growth reads 39.4% (inactive)

Noted for O=C(NCc1ccccc1)C(Cl)Cl : its growth reads 98.6% (inactive)

Noted for CCN(CC)CCS(=O)(=O)CCNc1ccnc2cc(Cl)ccc12 : its growth reads 22.5% (inactive)

Noted for O=C1CC(C(F)(F)F)Cc2nc3ccc(Br)cc3cc21 (centres undefined) : its growth reads 87.1% (inactive)

Noted for Cc1ccc(S(=O)(=O)n2cc(C(=O)C(=O)N3CCCCC3)c3ccccc32)cc1 : its growth reads 80.3% (inactive)

Noted for NC(=O)CC1C=CCC1 (centres undefined) : its growth reads 103% (inactive)

Noted for C=C(C)[C@@H]1CC[C@]2(C(=O)NCCNCCNCCN)CC[C@]3(C)[C@H](CC[C@@H]4[C@@]5(C)CC[C@H](O)C(C)(C)[C@@H]5CC[C@]43C)[C@@H]12 : its growth reads -69.1% [100 µM] (active)

Noted for COc1ncnc2c(-c3ccccc3)cn(COCc3ccccc3)c12 : its growth reads 75.6% (inactive)

Noted for O=C1Nc2ccccc2/C1=C/C(=O)c1ccc(N2CCCC2)cc1 : its growth reads 33.4% (inactive)

Noted for CCN(CC)CC(C)Nc1ccc(C)c2sc3ccccc3c(=O)c12 (centres undefined) : its growth reads 76.3% (inactive)

Noted for COCc1nc2ccccc2[nH]1 : its growth reads 105% (inactive)

Noted for C[C@@H]1C[C@H]2C(=O)O[C@@H](C)[C@H](NC(=O)[C@H](Cc3cc(F)cc(F)c3)NC(=O)Nc3ccc(C4CC4)cc3F)C(=O)N3CCC[C@H]3C(=O)N3CCCC[C@H]3C(=O)N[C@@H](C)C(=O)N2C1 : its growth reads 27.8% (inactive)

Noted for COc1cc2c(c(OC)c1)C1c3cc(OC)ccc3NC(=O)N1CC2 (centres undefined) : its growth reads 67.6% (inactive)

Noted for CNc1cc(C(=O)O)nc(NC)n1 : its growth reads 103% (inactive)

Noted for COC(=O)[C@]12CCC(C)(C)C[C@H]1C1=CC[C@@H]3[C@@]4(C)C/C(=C/c5cccnc5)C(=O)C(C)(C)[C@@H]4CC[C@@]3(C)[C@]1(C)CC2 : its growth reads -19.3% [100 µM] (active)

Noted for COc1cc(NCc2cn(-c3ccc(C(=O)O)cc3)nc2-c2ccc(C(=O)O)cc2)cc(OC)c1OC : its growth reads 98.6% (inactive)

Noted for COc1ccc(CC(C#N)c2ccc(Cl)cc2)cc1 (centres undefined) : its growth reads 74.3% (inactive)

Noted for O=[N+]([O-])c1ccc(O)c(-c2nc3ccccc3s2)c1 : its growth reads 88.8% (inactive)

Noted for CCCCCCCCCCCCNC(=S)N/N=C/c1ccccc1O : its growth reads 74% (inactive)

Noted for CCN(CC)c1cc(N)c(Cc2c(N)cc(N(CC)CC)cc2Cl)c(Cl)c1 : its growth reads 51.8% (inactive)

Noted for CCCc1cc2cc(-n3nc(C)c4c3CC(C)(C)CC4=O)cc(NC3CCSCC3)c2c(=O)[nH]1 : its growth reads 45.9% (inactive)

Noted for C=C(C)C1CCC2(C(=O)O)CCC3(C)C(CCC4C5(C)CCC(OC(=O)NCc6ccccc6)C(C)(C)C5CCC43C)C12 (centres undefined) : its growth reads 48.4% (inactive)

Noted for CN(C)CCOc1ccc(/C(=C(/CCCl)c2ccccc2)c2ccccc2)cc1 : its growth reads -18.8% (active)

Noted for Cc1cccc(/C=C2\N=C(c3ccccc3)N(c3ccc(S(N)(=O)=O)cc3)C2=O)c1 : its growth reads 83.5% (inactive)
